Value source: the supplement of paper PMC10338343

test system: MILI (PIWIL2) piRISC loaded with L1MC piRNA (26 nt); experiment: pre-steady-state target cleavage rate (min^-1); guide: L1MC piRNA 5'p-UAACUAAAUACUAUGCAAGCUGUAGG; higher = faster piRNA-guided slicing of the target; details: auxiliary factor: 500 nM mouse GTSF1;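 note: 1 nM active piRISC with 0.1 nM target library at 33 °C single turnover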
Measured pre-steady-state target cleavage rate determines class: low bracket = under 0.05, middle bracket = from 0.05 up to 0.2, high bracket = 0.2 and over

Would you please look over these solved cases?
UCCUGGAUCAGCUAGCAUAGUAUUUAGAAA : middle bracket
UCCUGGUACAGCUUGCAAGUAUUUAGUUA : middle bracket
UCCUGCUACAGGUUCCAUAGUAUUUAGUUA : low bracket

# bin label for `UCCUGCUACAGCUUCCAUAGUAUUUUGUUA`
low bracket

# bin label for `UCCUGCUACAGGUUGCAUAGUAUUUAGUAA`
high bracket

# bin label for `UCCUGCUACUGCUUGCAUAGUAUUUAGUAA`
middle bracket

# bin label for `UCCUGGAUGUCGAACCAAUGUAUUUAGUUA`
low bracket

# bin label for `UCCUGGUACAGCUUGCAUACUAUUAAGUUA`
low bracket

# bin label for `UCCUGGUACAGCUUGCAUAGUAAUUAGUAA`
high bracket

# bin label for UCCUGCUACAGCUUGCAUAGUAUUUAGUUA [g2:g25:cont:t1A]
high bracket

# bin label for `UCCUGGAUGUCGAACCAUAGAAAUUAGUUA`
low bracket

# bin label for `UCCUGGAUGUGCUUGCUUAGUAUUAAGUUA`
middle bracket

# bin label for `UCCUGGAUCAGCUUGCAUAGUAUUUAGAAA`
middle bracket

# bin label for `UCCUGGAAGUGCUUGCAUAGUAUUUAGUUA`
middle bracket

# bin label for `UCCUGGAACAGCUUGCUUAGUAAUUAGUUA`
high bracket

# bin label for `UCCUGGAUGUGCUUUCAUAGUAUUUAGUUA`
middle bracket

# bin label for `UCCUGGAUGACGCUUGCAUAGUAUUUAGUUA`
high bracket

# bin label for `UCCUGGAUGAGCUUGGUAAGUAUUUAGUAA`
low bracket

# bin label for `UCCUCCUACAGCUUGCAAAGUAAUUAGUUA`
middle bracket

# bin label for `UCCUGGUACAGCUUGCAAAGUAUUUAGAUA`
middle bracket

# bin label for `UCCUGGAACAGCUUGCAUAGAUUUUAGUUA`
low bracket

# bin label for `UCCUGGAUCUGCAUGCAUAGUAUUUAGUUA`
high bracket

* * *

test system: MILI (PIWIL2) piRISC loaded with piRNA #1 (26 nt); assay: pre-steady-state target cleavage rate (min^-1); guide: piRNA #1 5'p-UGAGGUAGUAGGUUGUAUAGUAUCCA; MIWI and MILI are mouse PIWI proteins and EfPiwi is from a freshwater sponge; tags in brackets are library labels; higher = faster piRNA-guided slicing of the target; settings: auxiliary factor: 500 nM mouse GTSF1;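 note: 1 nM active piRISC with 0.1 nM target library at 33 °C single turnover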
Use rule met when the recorded pre-steady-state target cleavage rate is no lower than 0.09; use rule not met when it is lower.

Would you please look over these solved cases?
GGAGACGAAACUAUACAACGUACUACCUCA : rule not met
GGAGACCUUACUAUACAACUACUACCUCA : rule not met
GGAGACCUUCCUAUACAACCUACUACCUCA : rule met
GGAGAGGAUACUAUACUUCCUACUACCUCA : rule met
GGAGACCUUACUAGACAACCUACUACCUCA : rule met

Check the entry GGAGACCUUACUAUACAACCUACUACCUCU [g2:g22:cont:t1U] : does pre-steady-state target cleavage rate equal or exceed 0.09?
rule met
